Test: yeast display, Sf9 membrane polyspecificity reagent, FACS + sequencing; frameworks hold sequencing errors
readout-label: polyreactivity (PSR sort gate)

- polymer-sequence: "QVQLQESVGGLVQAGGSLRLSCAATGTIFTDRFMGWYRQAPGKERELVAGISQGTSTNYADSVKGRFTISRDNAKNTVYLQMNSLKPEDTAVYYCAADLSTGNTLPYWGQGTQVTVSS"
  value: "high polyreactivity"
- polymer-sequence: "QVQLVESGGGLVQAGGSLRLSCAASGFTFWVYAMGWYRQAPGKERELVAAISARGGSTYYADSVKVRFTISRDNAKNTVYLQMNRLKPEDTAVYYCAAEPSGKRSKFYYWGQGTQVTVSS"
  value: "high polyreactivity"

---

Experiment: yeast display, Sf9 membrane polyspecificity reagent, FACS + sequencing; frameworks hold sequencing errors
readout-label: polyreactivity (PSR sort gate)

// solved cases for polyreactivity (PSR sort gate) follow
- polymer-sequence: "QVQLVESGGGLGQAAGSLRLSCAASGHIFGPYAMGWYSQAPGKERELVAAITSGGTTYYADSVKGRFTISRDNAKNTVYLQMNSLKPEDTAVYYCAAKFELTRYSSPFFWYDSWGQGTKVTVSS"
  value: "high polyreactivity"
- polymer-sequence: "QVQLVESGGGLVQAGGSLRLSCAASGSTFPGYAMGWYRQAPGKERELVAAISKRGGSTYYADSVKGRFTISRDNAKNTVYLQMNSLKPEDTAVYYCATVSRKYSLDYWGQGTQVTVSS"
  value: "high polyreactivity"
- polymer-sequence: "QVQLVESGGGLVQAGGSLRLSCAASGFTFYTYTMGWYRQAPGKERELVAVISRSGGSTYYADSVKGLFTISRDNAKNTVYLQMNSLNPEDTAVYYCNAGYWRFIDSFDYWGQRTQVTVSS"
  value: "high polyreactivity"
- polymer-sequence: "QVHLVESGGGLVQAGGSLRLSCAASGITLRVYVMGWYRQAPGKERELVAAITSRGDRTYYADSVKGRFTISRDNAKNTVYLQMNSLKPEDTAVYYCAASRWRDAGHSYDYWGQGTQVTVSS"
  value: "high polyreactivity"
- polymer-sequence: "QVQLVESGGGLVQAGGSLRLSCAASGRIFGPYTMGWYRQAPGKERELVAAIRSSGTSTYYADSVKGRFTISRDNAKNTVYLQMNSLKPEDTAVYYCNRARSSSRYDYWGQGTQVTVSS"
  value: "low polyreactivity"

Give polyreactivity (PSR sort gate) for all sequences that follow.
1. QVQLVESGGGLVQAGGSLRLSCAASGFTFYRYAMGWYRQAPGKERELVAVISSSGGRTYYADSVKGRFTISRDNAKNTVYLQMNSLKPEDTAVYYCAAVGAVRREDYWGQGTQVTVSS
2. QVQLVESGGGLVQAGGSLRLSCAASGRIFGTNAMGWYRQAPGKERELVAAISRSGGSTYYADSVKGRFTISRDNAKNTVYLQMNSLKPEDTAVYYCATDGRHTYYYWGQGTQVTVST
3. QVQLVESGGGLVQAGGSLRLSCAASGSIFYVYAMGWYRQAPGKERELVATISSSAGSTYYADSVKGRFTISRDNAKNTVYLQMNSLKPEDTAVYYCAAKVRYSLRKYYYWGQGTQVTVSS
4. QDQLVESGGGLVQAGGSLRLSCAASGFIFDDNAMGGYRQAPGKERELVAAITSGGGSTYYADSVKGRFTISRDNAKYTVYLQMNSLKPEDTAVYYCNAVPSQHDEFDYWGQGTQVTVSS
5. QVQLVESGGGLVQAGGSLRLSCAASGLTFSVYAMGWYRQAPGKDRELVAAISGSGGSTYYADSVKGRFTISRDNAKNTVYLQMNSLKPEDTAVYYCAADGRYFRAVFRLYDYWGQGTQVTVSS
6. QDQLVESGGGLVQAGGSLRLSCDASGRIFWVYVMGWYRQAPGKERELVADITSIGGSTYYADSVKGRFTISRDNAKNTVYLQMNSLKPEDTAVYSCAADVDGYPYYQYKMGYWGQGTQVTVSS
7. QVQLVESGGGLVQAGGSLRLSCAASGLTFADNTMGWYRQAPGKERELVAAIDWSGGGTDYADSVKGRFTISRDNAKNTVYLQMNSLKPEDTAVYYCNAERTSWEDDYWGQGTQVTVSS

A.
["high polyreactivity", "high polyreactivity", "high polyreactivity", "low polyreactivity", "low polyreactivity", "low polyreactivity", "low polyreactivity"]

Give polyreactivity (PSR sort gate) for all sequences that follow.
1. QVQLVESGGGLVQAGGSLRLSCAASGIIFATNSMGWYRQAPGKERELVAAITSDSTNYADSVKGRFTISRDNAKNTVYLQMNSLKAEDTAVYYCAADLITDYEESDYWGQGTQVTVSS
2. QVQLVESGGGLVQAGGSLRLSCAASGRIFWANAMGWYRQAPGKERELVAAISYSGVSTYYADSVKGRFTISRDNAKNTVYLQMNSLKPADTAVYYCAADRYRKYYYWGQGTQVTVSS
3. QVQLVESVGGLDQAGGSLRLSCPASGRTFGKYAMGWYRQSPGKERELVARISRRGGTTYYADSVKGRFTISRDNAKNTVYLQLNSLKPEDTAVYYCNARRRDYRHWYDYWGQGTQVTVSS
4. QGQLVESGGGLVQAGGSLRLSSAASGSTFVGNAMGWYRQAPGKEREMVATISNSGGRTYYADSVKGRFTISRDNAKNTVYLQMTSLKPEDTAVYDCAADHPAFGPGYSFDYWGQGTQVTLSS
5. QVQLVESGGGLVQAGGSLRLSCAASGFTFWAYAMGWYRQAPGKERELVAVISGSGGRTYYADSVKGRFTISRDNAKNTVYLQMNSLKPEDTAVYYCNARYPRLHRTYNYWGQGTLVTVSS
6. QVQLVESGGGLVQAGGSLRLSCAASGSIFRINAMGWYRQAPGKERELVAAISWSGGSTYYADSVKGRFTISRDNAKNTVYVQMNSLKPEDTAVYYCAAVVSKSSFDYWGQGTQVTVSS
7. QVQLVESGGGLVQAGGSLRLSCAASGSIFSSYAMGWYRQAPGKERELVATITSSGGSTYYADSVKGRFTISRDNAKNTVYLQMNSLKPADTAVYYCAASYHTSYSLRRYYYWGQGTQVTVSS

A.
low polyreactivity
high polyreactivity
high polyreactivity
low polyreactivity
high polyreactivity
low polyreactivity
low polyreactivity

Give polyreactivity (PSR sort gate) for all sequences that follow.
1. QVQLVESGGGLVQAGGSLRLSCAASGSTFYRYAMGWYRQAPGKERELVAAITSAGSTNYADSVKGRFTISRDNAKNTVYLQMNSLKPEDTAVYYCAADHGRPYFSYDYWGQGTQVTVSS
2. QVQLVESGGGLVQAGGSLRLSCAASGSIFKSYAMGWYRQAPGKERELVAVISDSGSTYYADSVKGRFTISRDNAKNTVYLQMNSLKPEDTAVYYCRCRGRRNEYWGQGTQVTVSS

A.
["low polyreactivity", "high polyreactivity"]
